Tested on: OVCAR-5 ovarian
Test Details: NCI-60 one-dose screen, 48 h
Condition Info: 10 µM unless noted
This is part of a sample that, as a whole, favours compounds with a hit. Of some 83,000 tested, about 20% had one in any assay. Activity calls are given as the source filed them. Rule for the calls: active = growth percent below 10; inactive = the rest.
The reply should be one of these categories: 1.0 = active, 0.0 = inactive

Test call for this compound, please: CCOC(=O)C1=C(C)n2nc(CC#N)c(C#N)c2NC1c1ccc(CC)cc1 (centres undefined)
0.0

Called result for COc1ccc(-c2[nH]c3ccc(OC)cc3c2C=C(C#N)C#N)cc1
0.0

Hi team, can someone confirm the assay call for COc1cc(C(=O)Nc2cc(O)c(C/C=C(\C)CCC=C(C)C)c(O)c2)cc2c1O[C@]1(C)CC[C@@H](O)C(C)(C)[C@H]1C2 ?
0.0

Hi team, can someone confirm the assay call for CCCn1c(N)c(C(N)=O)sc1=S ?
0.0

Dear all, I need the recorded test outcome for COC1=CC=CC2(OC)C3(O)CCCc4cccc(c43)N3C(=O)COC132 (centres undefined) , thank you.
0.0

Please let me know the test result on file for N#Cc1c(-c2ccc(F)cc2)nc(N/N=C/c2c[nH]c3ccccc23)nc1N1CCOCC1 .
0.0

Which result was noted for this compound in the test: COc1ccc(/C=C/C(=O)c2ccc(NC(=O)CSc3nnc(-c4ccc(OC)c(OC)c4)n3-c3ccccc3)cc2)cc1
0.0

Can you look up the reported call for O=C(/C(=C\c1c(-c2ccccc2)[nH]c2ccccc12)S(=O)(=O)c1ccccc1)c1ccccc1 for me?
0.0

Recorded call for C=C1C(=O)O[C@H]2[C@H]1CC/C(COC(=O)c1cc3ccccc3o1)=C\CC[C@@]1(C)O[C@@H]21 ?
1.0

Per the records of this test, what outcome belongs to C#C[C@@]1(O)[C@@H](CO)O[C@@H](n2ccc3c(N)ncnc32)[C@@H]1O ?
0.0

# fetch the recorded call for NCCN1CCNCC1 here
0.0

Called result for CC(=O)Oc1ccc(O)cc1
0.0

Could you please tell me the result logged for COc1ccc(-c2nnc(N3CCN(C(=O)CN4CCN(c5ccccc5)CC4)CC3)nc2-c2ccc(OC)cc2)cc1 in this assay?
0.0

How did this test come out for CCCCCCCc1n(Cc2ccc3ccccc3c2)c2ccccc2[n+]1Cc1ccc2ccccc2c1 ?
1.0

State the result this test recorded for CN(C)C1=NCCN1 .
0.0

Tell me the assay call for COc1ccc2oc(=O)cc(-c3nc4ccc(N)cc4[nH]3)c2c1 please.
0.0

I would be grateful if you could indicate the recorded call for N#Cc1c(-c2ccc(F)cc2)nc(N=Nc2c(O)[nH]c3ccccc23)nc1N1CCOCC1 .
0.0

Dear colleague, could you share the recorded outcome for CC(C)C[C@H](C(=O)O)N(C)C(=O)[C@@H]1CCCN1C(=O)[C@H](C)OC(=O)[C@H](CCC(N)=O)NC(=O)[C@@H]1CCC(=O)N1 when you have a moment?
0.0

Could you check what this test reported for COc1cc2cc(c1Cl)N(C)C(=O)C[C@H](OC(=O)[C@H](C)N(C)C(=O)CCS)C[C@]1(C)O[C@H]1[C@H](C)[C@@H]1C[C@@](O)(NC(=O)O1)[C@H](OC)/C=C/C=C(\C)C2 ?
0.0

----------
Tested on: UO-31 renal
Test Details: NCI-60 one-dose screen, 48 h (100 = growth as untreated, 0 = no growth, -100 = all killed)
Condition Info: 10 µM unless noted
About 83,000 compounds went through this panel and 20% of them were active in at least one assay; those are over-represented in the sample as a whole. Active and inactive are the calls of the source. How the source made its calls: active means growth percent below 10; inactive means the rest.
The entries below are paired with their reported growth.

{"Molecule": "COc1c(O)cc2oc3cc(O[C@@H]4OC(C)[C@@H](O)[C@H](O)C4O)c(CC=C(C)C)c(O)c3c(=O)c2c1CC=C(C)C (some centres undefined)", "growth": "80.3% (inactive)"}

May I ask what growth has been recorded for CCN(CC)CC#CCOC(=O)[C@]1(C)CCC[C@]2(C)[C@H]3C[C@H]4C(C(C)C)=C[C@]3(CC[C@H]21)[C@@H]1C(=O)CCC(=O)[C@@H]14 ?
50.9% (inactive)

What value of measured growth is listed for Cc1c(C(=O)Nc2nc3ccccc3[nH]2)cnn1-c1ccccn1 ?
104% (inactive)

Could you share which growth value was measured for NC(=O)c1ccc2nc3c(n2c1)C(=O)C(=O)c1ccccc1-3 ?
-99.7% (active)
